# Tested on: rodent lifetime carcinogenesis bioassay, tumor incidence TD50
# assay_protocol: carcinogenic potency in animals, long-term in vivo studies, CPDB compilation (AID 1745844)
# conditions_used: rat; strain Donryu; females; in drinking water; site: duodenum; lesion: several types; types named in the paper; dosed 76 weeks; study length 76 weeks
measurement_name: TD50

Please give the documented TD50 of `CC(C)CN(N=O)C(N)=O`
7.22 mg/kg/day

* * *

# Tested on: rodent lifetime carcinogenesis bioassay, tumor incidence TD50
# assay_protocol: carcinogenic potency in animals, long-term in vivo studies, CPDB compilation (AID 1745844)
# conditions_used: rat; strain Fischer 344; males; by gavage; site: stomach; lesion: squamous-cell carcinoma + squamous-cell papilloma; dosed 103 weeks; study length 105 weeks
measurement_name: TD50

Consider the molecule `CC1(C)COC1=O` and give its recorded TD50.
154 mg/kg/day

* * *

So I've got a bunch of compounds here, and I need their TD50 values.
# System: rodent lifetime carcinogenesis bioassay, tumor incidence TD50
# assay_protocol: carcinogenic potency in animals, long-term in vivo studies, CPDB compilation (AID 1745844)
# conditions_used: mouse; strain B6C3F1; males; by gavage; site: lung; lesion: alveolar/bronchiolar adenoma + alveolar/bronchiolar carcinoma; dosed 78 weeks; study length 90 weeks
Supply the numeric figure in mg/kg/day, leaving out any unit text.

State, in one line, measured TD50 of `CC(Cl)(Cl)Cl`
5.08e+06

Identify the reported TD50 for the following entry. `ClCC(Cl)Cl`
1560

Write down TD50 measured for item `ClC(Cl)(Cl)C(Cl)(Cl)Cl`
23600

Specify TD50 for `O=S1(=O)CC=CC1` and stop.
882

Supply TD50 value. Item: `ClC=C(Cl)Cl`
7160

* * *

# Tested on: rodent lifetime carcinogenesis bioassay, tumor incidence TD50
# assay_protocol: carcinogenic potency in animals, long-term in vivo studies, CPDB compilation (AID 1745844)
# conditions_used: hamster; strain Syrian Golden; males; by gavage; site: liver; lesion: hepatocellular tumor; dosed 61 weeks; study length 106 weeks
measurement_name: TD50

Give the reported value of TD50 for this record: `CN(C)CCN(C)N=O`
11.7 mg/kg/day

* * *

What TD50 was measured for each of the following?
# Tested on: rodent lifetime carcinogenesis bioassay, tumor incidence TD50
# assay_protocol: carcinogenic potency in animals, long-term in vivo studies, CPDB compilation (AID 1745844)
# conditions_used: hamster; strain Syrian Golden; males; in drinking water; site: liver; lesion: several types; types named in the paper; dosed 91 weeks; study length 91 weeks

Provide TD50 value for the following compound: `CN(C)N`
183 mg/kg/day

Could you please provide reported TD50 for `O=S(=O)(O)O` ? Thanks!
87.5 mg/kg/day

* * *

# Tested on: rodent lifetime carcinogenesis bioassay, tumor incidence TD50
# assay_protocol: carcinogenic potency in animals, long-term in vivo studies, CPDB compilation (AID 1745844)
# conditions_used: mouse; strain B6C3F1; males; by gavage; site: adrenal gland; lesion: pheochromocytoma; dosed 78 weeks; study length 90 weeks
measurement_name: TD50

Under rodent lifetime carcinogenesis bioassay, tumor incidence TD50: report TD50 of `ClCC(Cl)Cl` .
588 mg/kg/day

* * *

# Test system: rodent lifetime carcinogenesis bioassay, tumor incidence TD50
# assay_protocol: carcinogenic potency in animals, long-term in vivo studies, CPDB compilation (AID 1745844)
# conditions_used: mouse; strain B6C3F1; males; inhaled; site: Zymbal's gland; lesion: adenoma + carcinoma; dosed 26 weeks; study length 104 weeks
measurement_name: TD50 (mg/kg/day)
Please respond with the number in mg/kg/day and leave the unit unwritten.

Given `C=CC=C` , report its TD50 on rodent lifetime carcinogenesis bioassay, tumor incidence TD50.
135
